Target: CCDC6-RET (Homo sapiens, UniProt P07949+Q16204+Q96SW2)
Construct: CCDC6 (natural N-terminal fusion partner, UniProt Q16204); endogenous in cells; host or cells: TPC-1 (parental, papillary thyroid carcinoma)
Sequence (Q16204+P07949 fused): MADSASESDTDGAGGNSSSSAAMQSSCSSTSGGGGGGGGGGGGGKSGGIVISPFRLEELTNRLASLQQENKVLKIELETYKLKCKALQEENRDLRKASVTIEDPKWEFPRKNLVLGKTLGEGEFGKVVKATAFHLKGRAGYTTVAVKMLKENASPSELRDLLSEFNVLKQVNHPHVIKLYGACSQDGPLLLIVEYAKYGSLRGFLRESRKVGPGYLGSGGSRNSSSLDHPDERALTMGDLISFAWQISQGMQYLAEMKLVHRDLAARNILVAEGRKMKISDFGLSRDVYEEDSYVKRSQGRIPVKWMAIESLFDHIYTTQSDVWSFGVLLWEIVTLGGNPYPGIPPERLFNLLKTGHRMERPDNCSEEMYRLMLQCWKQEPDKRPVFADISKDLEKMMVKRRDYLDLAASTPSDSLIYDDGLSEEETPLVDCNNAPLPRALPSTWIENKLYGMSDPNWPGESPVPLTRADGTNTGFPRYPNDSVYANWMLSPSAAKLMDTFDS
Sequence (Q96SW2 whole entry, the tested form may be a part): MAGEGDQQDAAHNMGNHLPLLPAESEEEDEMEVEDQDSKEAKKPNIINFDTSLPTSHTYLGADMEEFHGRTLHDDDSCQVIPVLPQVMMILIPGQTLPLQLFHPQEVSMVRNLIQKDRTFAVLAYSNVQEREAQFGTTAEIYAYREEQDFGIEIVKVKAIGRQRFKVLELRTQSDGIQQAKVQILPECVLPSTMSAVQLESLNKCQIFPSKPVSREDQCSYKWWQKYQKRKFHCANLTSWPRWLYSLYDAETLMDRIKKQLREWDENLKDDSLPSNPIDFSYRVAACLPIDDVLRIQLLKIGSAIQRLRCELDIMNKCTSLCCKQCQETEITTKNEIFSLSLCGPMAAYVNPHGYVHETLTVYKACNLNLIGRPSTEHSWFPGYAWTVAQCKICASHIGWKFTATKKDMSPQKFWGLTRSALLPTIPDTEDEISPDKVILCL
Sequence (Q16531 whole entry partner, the tested form may be a part): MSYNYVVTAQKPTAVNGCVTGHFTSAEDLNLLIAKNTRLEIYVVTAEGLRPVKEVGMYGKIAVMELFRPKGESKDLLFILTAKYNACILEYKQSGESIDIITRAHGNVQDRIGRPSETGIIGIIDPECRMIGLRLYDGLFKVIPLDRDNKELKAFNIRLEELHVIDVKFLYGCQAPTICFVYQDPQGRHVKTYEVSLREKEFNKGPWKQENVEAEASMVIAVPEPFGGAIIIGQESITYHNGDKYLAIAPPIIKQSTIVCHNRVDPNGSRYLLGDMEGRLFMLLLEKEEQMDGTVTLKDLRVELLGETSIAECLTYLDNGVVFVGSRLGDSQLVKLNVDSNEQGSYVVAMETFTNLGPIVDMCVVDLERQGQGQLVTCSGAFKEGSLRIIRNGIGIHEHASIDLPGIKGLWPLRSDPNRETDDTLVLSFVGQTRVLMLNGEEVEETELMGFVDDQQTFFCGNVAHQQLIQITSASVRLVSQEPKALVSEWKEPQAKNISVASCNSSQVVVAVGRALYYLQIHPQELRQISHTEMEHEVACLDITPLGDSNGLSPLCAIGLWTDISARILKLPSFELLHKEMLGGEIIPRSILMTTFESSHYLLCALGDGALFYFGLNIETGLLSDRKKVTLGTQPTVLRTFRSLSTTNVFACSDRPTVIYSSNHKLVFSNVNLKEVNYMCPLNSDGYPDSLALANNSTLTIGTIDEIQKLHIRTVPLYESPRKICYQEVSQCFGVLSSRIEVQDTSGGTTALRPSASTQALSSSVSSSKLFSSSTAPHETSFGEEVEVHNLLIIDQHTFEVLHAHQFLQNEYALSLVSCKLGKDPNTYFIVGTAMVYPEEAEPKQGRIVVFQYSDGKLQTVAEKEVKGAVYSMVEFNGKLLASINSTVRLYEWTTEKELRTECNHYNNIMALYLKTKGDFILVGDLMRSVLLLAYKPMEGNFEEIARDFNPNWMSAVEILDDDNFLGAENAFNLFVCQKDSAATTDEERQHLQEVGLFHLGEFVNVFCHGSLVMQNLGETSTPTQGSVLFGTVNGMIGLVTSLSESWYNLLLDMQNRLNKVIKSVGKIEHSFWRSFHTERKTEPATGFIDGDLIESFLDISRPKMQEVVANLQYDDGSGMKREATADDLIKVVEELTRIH
Assay: Cellular RET degradation, AlphaLISA, TPC-1 cell line
Type: cell-based
Conditions: TPC1, human, 24 h, read-out: Cell Density TPC-1/CCDC6-RET Ymax %
Reported Dmax values for a set of compounds
quantity.measured: Dmax

[[record]]
compound = "CCOc1cc(-c2ccc(N3CCC(Cc4ccccc4)(NC(=O)N4CCC(CN5CCC(c6ccc7c(c6)C(=O)N(C6CCC(=O)NC6=O)C7)CC5)CC4)CC3)nc2)c2c(C#N)cnn2c1 (stereo not shown)"
quantity_measured = "Dmax"
recorded_value = "60 to 90%"

[[record]]
compound = "CCOc1cc(-c2ccc(N3CCC(CN4CCC5(CC4)CCN(C(=O)c4ccc6c(c4)C(=O)N(C4CCC(=O)NC4=O)C6)CC5)(NC(=O)c4cc(F)ccc4F)CC3)nc2)c2c(C#N)cnn2c1 (stereo not shown)"
quantity_measured = "Dmax"
recorded_value = "60 to 90%"

[[record]]
compound = "CCOc1cc(-c2ccc(N3CCC(COCC(=O)NCCCCCCN4CCN(c5ccc6c(c5)CN(C5CCC(=O)NC5=O)C6=O)CC4)(NC(=O)c4cc(F)ccc4F)CC3)nc2)c2c(C#N)cnn2c1 (stereo not shown)"
quantity_measured = "Dmax"
recorded_value = "> 90%"

[[record]]
compound = "CCOc1cc(-c2ccc(N3CCC(CN4CCN(C(=O)CCN5CCN(c6ccc7c(N8CCC(=O)NC8=O)nn(C)c7c6)CC5)CC4)(NC(=O)c4cc(F)ccc4F)CC3)nc2)c2c(C#N)cnn2c1"
quantity_measured = "Dmax"
recorded_value = "60 to 90%"

[[record]]
compound = "CCOc1cc(-c2ccc(N3CCC(CN4CCN(CCOCCC(=O)N5CCN(c6ccc7c(c6)CN(C6CCC(=O)NC6=O)C7=O)CC5)CC4)(NC(=O)c4cc(F)ccc4F)CC3)nc2)c2c(C#N)cnn2c1 (stereo not shown)"
quantity_measured = "Dmax"
recorded_value = "> 90%"

[[record]]
compound = "CCOc1cc(-c2ccc(N3CCC(CN4CCN(C(=O)CCOCCN5CCN(c6ccc7c(c6)CN(C6CCC(=O)NC6=O)C7=O)CC5)CC4)(NC(=O)c4cc(F)ccc4F)CC3)nc2)c2c(C#N)cnn2c1 (stereo not shown)"
quantity_measured = "Dmax"
recorded_value = "60 to 90%"

[[record]]
compound = "CCOc1cc(-c2ccc(N3CCC(CN4CCC5(CCC(CC(=O)N6CCN(c7ccc8c(c7)CN(C7CCC(=O)NC7=O)C8=O)CC6)CC5)CC4)(NC(=O)c4cc(F)ccc4F)CC3)nc2)c2c(C#N)cnn2c1 (stereo not shown)"
quantity_measured = "Dmax"
recorded_value = "> 90%"

[[record]]
compound = "CCOc1cc(-c2ccc(N3CCC(NC(=O)c4cc(F)ccc4F)(C(=O)NCCCCN4CCN(c5ccc6c(c5)CN(C5CCC(=O)NC5=O)C6=O)CC4)CC3)nc2)c2c(C#N)cnn2c1 (stereo not shown)"
quantity_measured = "Dmax"
recorded_value = "60 to 90%"

[[record]]
compound = "CCOc1cc(-c2ccc(N3CCC(CN4CCN(CCOCCC(=O)N5CCN(c6ccc7c(c6)C(=O)N(C6CCC(=O)NC6=O)C7)CC5)CC4)(NC(=O)c4cc(F)ccc4F)CC3)nc2)c2c(C#N)cnn2c1 (stereo not shown)"
quantity_measured = "Dmax"
recorded_value = "> 90%"

[[record]]
compound = "CCOc1cc(-c2ccc(N3CCC(CN4CCN(C(=O)C5CC6(C5)CC(C(=O)N5CCN(c7ccc8c(c7)C(=O)N(C7CCC(=O)NC7=O)C8)CC5)C6)CC4)(NC(=O)c4cc(F)ccc4F)CC3)nc2)c2c(C#N)cnn2c1 (stereo not shown)"
quantity_measured = "Dmax"
recorded_value = "> 90%"

